Reported MIC values are given for each entry in this list.
Tested on: P. aeruginosa Ps296 expressing VIM-2
Assay procedure: Broth microdilution MIC assay, partner meropenem
Format: cell-based
Test parameters: Pseudomonas aeruginosa, read-out: MIC of Exemplary Compounds in presence of fixed β-lactams, Fixed Mero, P. aerug. Ps296 VIM-2

| Chemical smiles | Result |
| --- | --- |
| O=C(N[C@H]1Cc2cccc(C(=O)O)c2OB1O)c1ccc(O)c(O)c1 | 8 to 32 µg/mL |
| CC(C)NCc1cc(C(=O)N[C@H]2Cc3cccc(C(=O)O)c3OB2O)ccc1CN | < 4 µg/mL |

QUERY: What does the record list as MIC for NCc1cc(C(=O)N[C@H]2Cc3cccc(C(=O)O)c3OB2O)cnc1CN ?
RESULT: < 4 µg/mL
